Values from patent US20240002497A1

Experimental system: T1, huNav1.7α+β1-β2-β3 (human, UniProt Q15858 1-1988; Q07699 19-218; O60939 30-215; Q9NY72 23-215)
T1 construct: 5N11S variant; also called huNav1.7-beta1-beta2-beta3; huNav1.7α+Navβ1-Navβ2-Navβ3
Procedure summary: binding FACS, HEK FlpIn cells
Measurement label: EC50 (nM)

F0103265A11 (parental)-FLAG-HIS6 (VHH, also called F01033265A11) VHH: EVQLVESGGGLVQPGGSLRLSCAASGMLFNANTQGWYRQAPGKQRELVAFIFSGGYTNYVDSVKGRFTISRDNAKRTMYLQMNSLKPEDSAIYYCSLSRYLGQGTLVTVSS
77
F010300535 (VHH, vs F0103265A11: S53W) VHH: EVQLVESGGGLVQPGGSLRLSCAASGMLFNANTQGWYRQAPGKQRELVAFIFWGGYTNYVDSVKGRFTISRDNAKRTMYLQMNSLKPEDSAIYYCSLSRYLGQGTLVTVSS
16
F010301080 (VHH, also called F0103265A11(S53W, T57V, N58T, V60N)) VHH: EVQLVESGGGLVQPGGSLRLSCAASGMLFNANTQGWYRQAPGKQRELVAFIFWGGYVTYNDSVKGRFTISRDNAKRTMYLQMNSLKPEDSAIYYCSLSRYLGQGTLVTVSS
5.1
